# PROCEDURE SUMMARY: Single ascending oral dose study in healthy volunteers: plasma pharmacokinetics
# Type: in vivo, human
# RECORDED CONDITIONS: human, plasma, oral, 175 mg; read-out: Tmax, Median
READOUT NAME: Tmax (h)
Report the figure in h without appending any unit label.

Lab book: Tmax of Cn1cc(S(=O)(=O)[C@@](C)(F)C2CCN(C(=O)Nc3ccon3)CC2)c(C(F)F)n1 noted as 5

* * *

# PROCEDURE SUMMARY: Single ascending oral dose study in healthy volunteers: plasma pharmacokinetics
# Format: in vivo, human
# RECORDED CONDITIONS: human, plasma, oral, 25 mg; read-out: Cmax, Mean
READOUT NAME: Cmax (ng/mL)
Report the value in ng/mL with no unit label.

What the record says about Cn1cc(S(=O)(=O)[C@@](C)(F)C2CCN(C(=O)Nc3ccon3)CC2)c(C(F)F)n1 : Cmax is 304

* * *

# PROCEDURE SUMMARY: Single ascending oral dose study in healthy volunteers: plasma pharmacokinetics
# Type: in vivo, human
# RECORDED CONDITIONS: human, plasma, oral, 350 mg; read-out: AUC0-48, Geometric Mean
READOUT NAME: AUC(0-t) (µg·h/mL)
Numeric only. Scale: µg·h/mL

AUC(0-t) reported for this compound Cn1cc(S(=O)(=O)[C@@](C)(F)C2CCN(C(=O)Nc3ccon3)CC2)c(C(F)F)n1 : 64.2

* * *

# PROCEDURE SUMMARY: Single ascending oral dose study in healthy volunteers: plasma pharmacokinetics
# Format: in vivo, human
# RECORDED CONDITIONS: human, plasma, oral, 175 mg; read-out: Mean Residence Time, Median
READOUT NAME: MRT (h)
Write the value in h as a bare number.

Entry under test: Cn1cc(S(=O)(=O)[C@@](C)(F)C2CCN(C(=O)Nc3ccon3)CC2)c(C(F)F)n1 [Compound I] . Its MRT was 24.4

* * *

# PROCEDURE SUMMARY: HFrEF study Part 1 (SAD Cohorts 1 and 2): plasma pharmacokinetics
# Format: in vivo, human
# RECORDED CONDITIONS: human, plasma, oral, 550 mg, SAD Cohort 1, Split dose 550 mg (n = 2); read-out: AUC0-24
READOUT NAME: AUC(0-t)
Please answer in the form of a number followed by its unit of measurement.

The compound listed as Cn1cc(S(=O)(=O)[C@@](C)(F)C2CCN(C(=O)Nc3ccon3)CC2)c(C(F)F)n1 has a reported AUC(0-t) of 97900 ng·h/mL

* * *

# PROCEDURE SUMMARY: Single ascending oral dose study in healthy volunteers: plasma pharmacokinetics
# Format: in vivo, human
# RECORDED CONDITIONS: human, plasma, oral, 525 mg, 24 Hours Postdose; 525 mg; read-out: Plasma concentration, Mean
READOUT NAME: concentration at 24 h (ng/mL)
Hi! Could you send only the number? It should be in ng/mL, unit omitted.

The recorded concentration at 24 h for Cn1cc(S(=O)(=O)[C@@](C)(F)C2CCN(C(=O)Nc3ccon3)CC2)c(C(F)F)n1 is 1230

* * *

# PROCEDURE SUMMARY: Single ascending oral dose study in healthy volunteers: plasma pharmacokinetics
# Format: in vivo, human
# RECORDED CONDITIONS: human, plasma, oral, 50 mg; read-out: AUC0-last, Median
READOUT NAME: AUC(0-t) (ng·h/mL)
Write the answer as a number in ng·h/mL, unit excluded.

Briefly, AUC(0-t) measured for Cn1cc(S(=O)(=O)[C@@](C)(F)C2CCN(C(=O)Nc3ccon3)CC2)c(C(F)F)n1 [Compound I] : 11200

* * *

# PROCEDURE SUMMARY: Food effect cross-over study, 200 mg (25 mg tablets), healthy volunteers: plasma pharmacokinetics
# Assay type: in vivo, human
# RECORDED CONDITIONS: human, plasma, oral, 18 hours postdose, Fasted, read-out: Plasma concentration, Mean
READOUT NAME: concentration at 18 h (ng/mL)
Use ng/mL as the unit, but write only the number.

Recorded concentration at 18 h (compound Cn1cc(S(=O)(=O)[C@@](C)(F)C2CCN(C(=O)Nc3ccon3)CC2)c(C(F)F)n1 ): 1320

* * *

# PROCEDURE SUMMARY: Food effect cross-over study, 200 mg (25 mg tablets), healthy volunteers: plasma pharmacokinetics
# Assay type: in vivo, human
# RECORDED CONDITIONS: human, plasma, oral, 24 hours postdose, Fed, read-out: Plasma concentration, Geometric Mean
READOUT NAME: concentration at 24 h
Answer shape: numeric part, then the unit.

Please fill in: concentration at 24 h reported for Cn1cc(S(=O)(=O)[C@@](C)(F)C2CCN(C(=O)Nc3ccon3)CC2)c(C(F)F)n1 [Compound I] = 1660 ng/mL

* * *

# PROCEDURE SUMMARY: HFrEF study Part 1 (SAD Cohorts 1 and 2): plasma pharmacokinetics
# Assay type: in vivo, human
# RECORDED CONDITIONS: human, plasma, oral, 350 mg, 350 mg single dose; read-out: Cmax, mean (SD)
READOUT NAME: Cmax (ng/mL)
# value in ng/mL; strip the unit string

Documented Cmax of Cn1cc(S(=O)(=O)[C@@](C)(F)C2CCN(C(=O)Nc3ccon3)CC2)c(C(F)F)n1 : 2760

* * *

# PROCEDURE SUMMARY: Single ascending oral dose study in healthy volunteers: plasma pharmacokinetics
# Format: in vivo, human
# RECORDED CONDITIONS: human, plasma, oral, 3 mg; read-out: Cmax, Geometric Mean
READOUT NAME: Cmax (ng/mL)
Numbers only here, please. The scale is ng/mL.

Measured Cmax of Cn1cc(S(=O)(=O)[C@@](C)(F)C2CCN(C(=O)Nc3ccon3)CC2)c(C(F)F)n1 : 37.6

* * *

# PROCEDURE SUMMARY: HFrEF study Part 1 (SAD Cohorts 1 and 2): plasma pharmacokinetics
# Format: in vivo, human
# RECORDED CONDITIONS: human, plasma, oral; SAD Cohort 2, 400 mg split dose (n = 4); read-out: t½ (converted)
READOUT NAME: half-life (h)
Hi! Could you send only the number? It should be in h, unit omitted.

Value of half-life reported for the molecule Cn1cc(S(=O)(=O)[C@@](C)(F)C2CCN(C(=O)Nc3ccon3)CC2)c(C(F)F)n1 is 24.1

* * *

# PROCEDURE SUMMARY: Food effect cross-over study, 200 mg (25 mg tablets), healthy volunteers: plasma pharmacokinetics
# Format: in vivo, human
# RECORDED CONDITIONS: human, plasma, oral, fed state, read-out: tmax of mean plasma concentrations
READOUT NAME: Tmax

get_value(item= Cn1cc(S(=O)(=O)[C@@](C)(F)C2CCN(C(=O)Nc3ccon3)CC2)c(C(F)F)n1 , readout=Tmax) returns 6 h

* * *

# PROCEDURE SUMMARY: Food effect cross-over study, 200 mg (25 mg tablets), healthy volunteers: plasma pharmacokinetics
# Format: in vivo, human
# RECORDED CONDITIONS: human, plasma, oral, 1 hour postdose, Fasted, read-out: Plasma concentration, Mean
READOUT NAME: concentration at 1 h (ng/mL)
Numbers only here, please. The scale is ng/mL.

For reference, reported concentration at 1 h for Cn1cc(S(=O)(=O)[C@@](C)(F)C2CCN(C(=O)Nc3ccon3)CC2)c(C(F)F)n1 stands at 1360

* * *

# PROCEDURE SUMMARY: Food effect cross-over study, 200 mg (25 mg tablets), healthy volunteers: plasma pharmacokinetics
# Assay type: in vivo, human
# RECORDED CONDITIONS: human, plasma, oral, 72 hours postdose, Fasted, read-out: Plasma concentration, Mean
READOUT NAME: concentration at 72 h
Please give the number followed by its unit.

Sample Cn1cc(S(=O)(=O)[C@@](C)(F)C2CCN(C(=O)Nc3ccon3)CC2)c(C(F)F)n1 [Compound I] ; concentration at 72 h observed: 108 ng/mL

* * *

# PROCEDURE SUMMARY: Single ascending oral dose study in healthy volunteers: plasma pharmacokinetics
# Format: in vivo, human
# RECORDED CONDITIONS: human, plasma, oral, 100 mg; read-out: AUC0-last, Geometric Mean
# Source text: This example describes the first-in-human study of Compound I. Based on its mechanism of action, Compound I may offer a targeted therapy for patients with DCM caused by genetic or nongenetic mechanisms. […] The concentrations of Compound I in human plasma and urine were quantitated by high performance liquid chromatography with tandem mass spectrometric detection (LC MS/MS) (Biological sample analysis study report Alturas AD17-726). […]
READOUT NAME: AUC(0-t) (ng·h/mL)
Reply numerically in ng·h/mL, unit not repeated.

Noted for Cn1cc(S(=O)(=O)[C@@](C)(F)C2CCN(C(=O)Nc3ccon3)CC2)c(C(F)F)n1 : its AUC(0-t) reads 21700
